TEAD4 (Homo sapiens): recorded log10(IC50) for assorted compounds
Sequence (Q15561 whole entry, species assumed): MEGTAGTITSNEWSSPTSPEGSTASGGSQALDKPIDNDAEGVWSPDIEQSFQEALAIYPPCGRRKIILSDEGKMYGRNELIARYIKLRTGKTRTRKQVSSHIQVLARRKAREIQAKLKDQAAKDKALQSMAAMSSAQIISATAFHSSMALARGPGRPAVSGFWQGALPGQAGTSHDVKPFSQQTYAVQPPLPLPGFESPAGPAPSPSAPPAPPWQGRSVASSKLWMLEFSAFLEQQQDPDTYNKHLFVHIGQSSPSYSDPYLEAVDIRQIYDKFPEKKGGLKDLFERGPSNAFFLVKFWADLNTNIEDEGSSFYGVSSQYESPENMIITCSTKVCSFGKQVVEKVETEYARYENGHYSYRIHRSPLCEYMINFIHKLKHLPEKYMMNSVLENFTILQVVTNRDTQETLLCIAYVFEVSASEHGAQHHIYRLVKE
measured_attribute: log10(IC50) (log10 of the value in nM)

[[record]]
compound = "Cn1cnc2c(-c3ccc(OC(F)(F)F)cc3)nc(C3CN(C(=O)C45CC4C5)C3)nc21 (stereo not shown) [Compound 119]"
measured_attribute = "log10(IC50)"
quantitative_result = 2.20

[[record]]
compound = "Cn1cnc2c(-c3ccc(OC(F)(F)F)cc3)nc(C3(C#N)CN(C(=O)/C=C/CO)C3)nc21 [Compound 128]"
measured_attribute = "log10(IC50)"
quantitative_result = 0.43

[[record]]
compound = "C=CC(=O)NCc1cc(-c2ccc(OC(F)(F)F)cc2)c2c(c1CO)CCO2 [Compound 12]"
measured_attribute = "log10(IC50)"
quantitative_result = 1.18

[[record]]
compound = "C=CC(=O)NCc1cc(-c2ccc(OC(F)(F)F)cc2)c2nccnc2c1CO [Compound 84]"
measured_attribute = "log10(IC50)"
quantitative_result = 1.68

[[record]]
compound = "C=CC(=O)NCc1cc(-c2ccc(OC(F)(F)F)cc2)c2ncn(C)c2c1[C@@H](O)CO (single isomer, unassigned) [Compound 31]"
measured_attribute = "log10(IC50)"
quantitative_result = 1.74

[[record]]
compound = "C=CC(=O)NCc1cc(-c2ccc(OC(F)(F)F)cc2)c2nccnc2c1[C@@H](C)O (single isomer, unassigned) [Compound 82]"
measured_attribute = "log10(IC50)"
quantitative_result = 2.38

[[record]]
compound = "C=C(F)C(=O)N1CC(c2nc(-c3ccc(OC(F)(F)F)cc3)c3ncn(C)c3n2)C1 [Compound 118]"
measured_attribute = "log10(IC50)"
quantitative_result = 0.83


====

TEAD2 (Homo sapiens, UniProt Q15562): recorded pIC50 for assorted molecules
Sequence (Q15562 whole entry, species assumed): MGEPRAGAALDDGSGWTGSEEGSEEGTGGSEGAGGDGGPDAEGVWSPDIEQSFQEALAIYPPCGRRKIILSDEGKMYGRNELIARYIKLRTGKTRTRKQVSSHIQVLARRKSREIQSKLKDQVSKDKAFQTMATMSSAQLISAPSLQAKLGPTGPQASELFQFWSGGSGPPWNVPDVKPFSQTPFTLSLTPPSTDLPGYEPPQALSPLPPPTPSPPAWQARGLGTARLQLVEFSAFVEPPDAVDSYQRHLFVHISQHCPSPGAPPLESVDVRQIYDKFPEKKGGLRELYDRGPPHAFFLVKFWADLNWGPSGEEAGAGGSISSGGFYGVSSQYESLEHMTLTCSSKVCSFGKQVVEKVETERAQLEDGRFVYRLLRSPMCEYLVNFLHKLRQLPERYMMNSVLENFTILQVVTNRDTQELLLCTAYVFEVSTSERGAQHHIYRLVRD
pIC50: −log10 of the molar value.
measured_attribute: pIC50

[[record]]
molecule = "C=CC(=O)NCc1cc(-c2ccc(OC(F)(F)F)cc2)c2ncn(C)c2c1[C@@H](C)O (single isomer, unassigned)"
target_of_assay = "TEAD2 (Homo sapiens, UniProt Q15562)"
quantitative_result = 8.00

[[record]]
molecule = "C=CC(=O)NCc1cc(-c2ccc(OC(F)(F)F)cc2)c2ncn(C)c2c1C#CCO"
target_of_assay = "TEAD2 (Homo sapiens, UniProt Q15562)"
quantitative_result = 8.22


====

target_of_assay: TEAD2 (Homo sapiens, UniProt Q15562)
procedure_text: biochemical
pIC50: −log10 of the molar value.
Would you mind labelling by pIC50? At or over 7 is met, under is not met.

[[record]]
compound_structure_string = "C=CC(=O)N1CC(c2nc(-c3ccc(OC(F)(F)F)cc3)c3ncn(C)c3n2)C1"
discrete_label = "met"

[[record]]
compound_structure_string = "C=CC(=O)NCc1nc(-c2ccc(OC(F)(F)F)cc2)c2nc(C)sc2n1"
discrete_label = "not met"

[[record]]
compound_structure_string = "C=CC(=O)NCc1cc(-c2ccc(OC(F)(F)F)cc2)c2ncn(C)c2c1C#C[C@H](O)CO"
discrete_label = "met"

[[record]]
compound_structure_string = "C=C(F)C(=O)N1CC(c2cc(-c3ccc(OC(F)(F)F)cc3)c3ncn(C)c3c2)C1"
discrete_label = "met"


====

target_of_assay: TEAD2 (Homo sapiens, UniProt Q15562);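 note: TR-FRET competition assay with His-tagged TEAD protein and a biotinylated lipid pocket probe, where probe displacement by compound lowers the signal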
procedure_text: biochemical
Param label: returns 1.0 when IC50 < 30 nM, returns 0.0 otherwise, including exact equality.

[[record]]
compound = "C=CC(=O)NCc1cc(-c2ccc(S(F)(F)(F)(F)F)cc2)c2c(c1[C@H](O)CO)CCO2 (stereo in doubt) [Compound 96]"
discrete_label = 0.0

[[record]]
compound = "C=CC(=O)NCc1cc(-c2ccc(S(F)(F)(F)(F)F)cc2)c2c(c1CO)CCO2 [Compound 24]"
discrete_label = 0.0

[[record]]
compound = "C=CC(=O)NCc1nc(-c2ccc(OC(F)(F)F)cc2)nc2c1ncn2C [Compound 133]"
discrete_label = 0.0

[[record]]
compound = "C=CC(=O)NCc1cc(-c2ccc(OC(F)(F)F)cc2)c2ncn(C)c2c1Cc1cn[nH]c1 [Compound 34]"
discrete_label = 0.0

[[record]]
compound = "C=CC(=O)NCc1cc(-c2ccc(OC(F)(F)F)cc2)c2nccnc2c1[C@H](O)CO (single isomer, unassigned) [Compound 79]"
discrete_label = 0.0

[[record]]
compound = "C=CC(=O)N(C)Cc1cc(-c2ccc(OC(F)(F)F)cc2)c2c(c1[C@H](O)CO)CCO2 (single isomer, unassigned) [Compound 55]"
discrete_label = 1.0

[[record]]
compound = "C=CC(=O)N(C)Cc1nc(-c2ccc(OC(F)(F)F)cc2)c2ncsc2n1 [Compound 11]"
discrete_label = 0.0

[[record]]
compound = "C=C(F)C(=O)NCc1cc(-c2ccc(OC(F)(F)F)cc2)c2c(c1C#N)CCO2 [Compound 67]"
discrete_label = 0.0

[[record]]
compound = "C=CC(=O)NCc1cc(-c2ccc(OC(F)(F)F)cc2)c2ncn(C(F)F)c2c1CO [Compound 39]"
discrete_label = 1.0

[[record]]
compound = "C=CC(=O)NCc1nc(-c2ccc(OC(F)(F)F)cc2)c2ncsc2n1 [Compound 21]"
discrete_label = 0.0

[[record]]
compound = "C=CC(=O)NCc1cc(-c2ccc(OC(F)(F)F)cc2)c2nccnc2c1C#N [Compound 85]"
discrete_label = 0.0

[[record]]
compound = "C=CC(=O)NCc1cc(-c2ccc(OC(F)(F)F)cc2)c2ncn(C)c2c1C#N [Compound 27]"
discrete_label = 1.0

[[record]]
compound = "[2H]C([2H])=C([2H])C(=O)NCc1nc(-c2ccc(OC(F)(F)F)cc2)c2ncsc2n1 [Compound 101]"
discrete_label = 0.0

[[record]]
compound = "C=C(F)C(=O)N1CC(c2nc(-c3ccc(OC(F)(F)F)cc3)c3ncn(C)c3n2)C1 [Compound 118]"
discrete_label = 0.0

[[record]]
compound = "C=C(F)C(=O)NCc1cc(-c2ccc(OC(F)(F)F)cc2)c2nccnc2c1[C@@H](O)CO [Compound 80]"
discrete_label = 0.0

[[record]]
compound = "C=CC(=O)N1CC[C@H](c2nc(-c3ccc(OC(F)(F)F)cc3)c3ncn(C)c3n2)C1 (single isomer, unassigned) [Compound 123]"
discrete_label = 1.0

[[record]]
compound = "Cn1cnc2c(-c3ccc(OC(F)(F)F)cc3)nc(C3(C#N)CN(C(=O)/C=C/CO)C3)nc21 [Compound 128]"
discrete_label = 1.0

